Measured glycan array binding signal (z-score), listed per entry for reference.
Molecular target: GalNAc(a1-3)GalNAc(b1-3)Gal(a1-4)Gal(b1-4)Glc
Assay: glycan array binding signal (z-score within array); higher = stronger binding
Settings: glycan notation: IUPAC condensed, linker removed
The entries come from a sample that favours the strongest signals as a whole.
Form rule: numeric answer, no unit written next to it.

Langerin K299A/K313A (Homo sapiens), Q9UJ71 (protein) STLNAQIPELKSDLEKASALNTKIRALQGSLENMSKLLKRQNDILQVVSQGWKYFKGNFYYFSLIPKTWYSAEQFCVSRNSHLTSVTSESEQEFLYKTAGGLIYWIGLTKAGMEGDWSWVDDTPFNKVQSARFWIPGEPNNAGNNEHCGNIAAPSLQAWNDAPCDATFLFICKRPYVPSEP : 0.162
rCNL (Clitocybe nebularis), B2ZRS9 (protein) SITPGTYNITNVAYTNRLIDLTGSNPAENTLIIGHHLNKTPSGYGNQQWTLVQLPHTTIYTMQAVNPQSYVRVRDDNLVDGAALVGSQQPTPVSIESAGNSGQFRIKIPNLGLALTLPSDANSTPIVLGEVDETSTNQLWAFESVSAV : -0.001

Next item in the queue.
Quick note, glycan array binding signal (z-score) for LICBM33A (Lactococcus lactis), Q9CE94 (protein) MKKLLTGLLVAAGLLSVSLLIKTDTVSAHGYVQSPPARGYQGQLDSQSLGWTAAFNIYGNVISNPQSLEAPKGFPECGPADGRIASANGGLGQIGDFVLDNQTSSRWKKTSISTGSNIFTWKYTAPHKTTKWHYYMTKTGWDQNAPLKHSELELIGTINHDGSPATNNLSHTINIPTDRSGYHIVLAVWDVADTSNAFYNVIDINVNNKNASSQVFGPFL landed at -0.96
